Type: in vivo, CD-1 mice
Details: CD-1, mouse, plasma, iv, 40 mg/kg
recorded endpoint: half-life
// unit must come after the numeric part

Looking up COc1ccc2[nH]c3c(-c4cccc5ccccc45)nccc3c2c1 [SP-141] , I see its half-life listed as 58.8 min

###

Format: in vivo, CD-1 mice
Settings: CD-1, mouse, plasma, ip, 40 mg/kg
recorded endpoint: Cmax (ng/mL)
Give bare numbers, in ng/mL.

Briefly, Cmax measured for COc1ccc2[nH]c3c(-c4cccc5ccccc45)nccc3c2c1 : 4420

###

Assay type: in vivo, CD-1 mice
Details: CD-1, mouse, plasma, ip, 40 mg/kg
recorded endpoint: AUC(0-inf) (ng·h/mL)
Answers are plain numbers, in ng·h/mL.

According to the records, this compound COc1ccc2[nH]c3c(-c4cccc5ccccc45)nccc3c2c1 [SP-141] displays AUC(0-inf) of 13200
